# test_method_notes: chemical genetic growth profiling, strain panel (AID 1159580);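 further: tested at 20 µM; growth read once vehicle control cultures reached saturation at 30 °C; 1 = growth at the plate median or of vehicle wells; lower values mean less growth of the strain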
# condition_summary: S. cerevisiae deletion strains, growth OD, locus YKL085W, strain MDH1 (second series)
Screen size: about 5,500 compounds; about 2,000 (36%) were called active. Roughly 18% stayed inconclusive and do not appear here. No stated cut-off is given here; in the data, active means normalized growth mostly below about 0.91 (no sharp cut-off); inconclusive means no clear call, values can overlap the other calls; inactive means mostly above about 0.92. This is one part of the list.
Outcomes you can answer with include only these: active, inactive

{"columns": ["compound", "class"],
 "data": [
  ["CC(C)N(C(=O)CCl)c1ccccc1", "inactive"]
]}

Q. # lookup: test call for COC1C(O)C(O)C(O)[C@@H](O)C1O (stereo not given in full)
A. inactive

Q. Ok, now O=c1ccc2cc(O)c(O)cc2o1
A. inactive

Q. # iterate: CC(C)=CCc1c(O)cc2oc(C)cc(=O)c2c1O
A. inactive

Q. And then NC(=O)N1c2ccccc2CC(=O)c2ccccc21 , what is it?
A. inactive

Q. Likewise for COc1cc(OC)c2c(c1)OC(c1ccc(OC)c(OC)c1)C(O)C2 (stereo not given) ?
A. inactive

Q. Check CCCCOc1ccc(CC(=O)NO)cc1 too.
A. inactive

###

# test_method_notes: chemical genetic growth profiling, strain panel (AID 1159580);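 further: tested at 20 µM; growth read once vehicle control cultures reached saturation at 30 °C; 1 = growth at the plate median or of vehicle wells; lower values mean less growth of the strain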
# condition_summary: S. cerevisiae deletion strains, growth OD, locus YBR229C, strain ROT2, hits give low values
Screen size: about 5,500 compounds; about 2,000 (36%) were called active. About 18% were inconclusive and are not listed. The list shows a part of the results.
Entries and their normalized growth values follow.
Answer with a number only.

Here's what some known entries look like.
{"columns": ["molecule", "normalized growth"],
 "data": [
  ["CC(=O)OCc1ccc(/C=C(\\C#N)S(=O)(=O)c2ccc(Cl)cc2)o1", 1.01],
  ["O=C(O)c1ccccc1OP(=O)(O)O", 1.01],
  ["COC(=O)COc1ccc(Cl)cc1Cl", 1.01],
  ["COc1cc(OC)c2c(c1)OC(c1ccc(OC)c(OC)c1)C(O)C2 (stereo not drawn)", 1.01],
  ["Cc1cc(C)c2c(-n3cccc3)c(C(=O)c3ccc(Cl)cc3)sc2n1", 1.01],
  ["Cc1cc(NC(=O)C(Cl)(Cl)Cl)n(-c2ccccc2)n1", 0.987],
  ["C=CCc1ccc2c(c1)OCO2", 1.02],
  ["CC(=O)O[C@H]1C(=O)[C@@]2(C)C([C@H](OC(=O)c3ccccc3)[C@]3(O)C[C@H](OC(=O)[C@H](O)[C@@H](NC(=O)c4ccccc4)c4ccccc4)C(C)=C1C3(C)C)[C@]1(OC(C)=O)CO[C@@H]1C[C@@H]2O (stereo partly drawn)", 1.02]
]}

Q. # normalized growth lookup, item CN(C)/C=C(\C#N)C(=O)Nc1ccc(F)c(Cl)c1
A. 1.01

Q. Another molecule to check: COc1cc(OC)c2c(c1)O[C@H](c1ccc(OC)c(OC)c1)[C@@H](O)C2
A. 1.01

Q. // repeat for COC1C(O)C(O)C(O)[C@@H](O)C1O (stereo partly drawn) and report
A. 1.01

Q. Same question for CCC1(c2ccccc2)C(=O)NCNC1=O please.
A. 1

Q. Likewise for C=C(C)/C=C1/C=CC(=O)C(C)=C1 ?
A. 0.99

Q. Similarly, C[N+](C)(C)CCOP(=O)([O-])OP(=O)(O)OC[C@H]1OC(n2ccc(N)nc2=O)[C@H](O)[C@@H]1O (stereo partly drawn) ?
A. 1

Q. Same again, this time with CN(C)/C=C1\C(=O)c2ccccc2N(C)S1(=O)=O
A. 0.994

Q. Then O=C(Nc1ccccc1C(=O)Nc1ccc(Br)cc1)c1ccccc1 ?
A. 1.02

Q. Could you do the same for CC(=O)O[C@@](C)(CCC=C(C)C)C1CC=C(C)CC1 (stereo partly drawn) , please?
A. 1.02

Q. Lookup NC/C=C/C(=O)O
A. 1.01

Q. Entry to check: O=C(Nc1ccccc1C(=O)NC1CCCCNC1=O)c1cccs1 (stereo not drawn)
A. 1.01

Taken from PubChem BioAssay AID1159580.
